Target: Cytochrome P450 2D6 (Homo sapiens)
Assay: Cytochrome panel assay with activity outcomes
Conditions: recombinant CYP, pro-luciferin dealkylation, luminescence, p450-cyp2d6; series mostly up to 57.1 µM
Screen size: about 16,000 compounds; about 2,600 (16%) were called active. Roughly 20% stayed inconclusive and do not appear here. Calls come from the whole dose curve; as a rule, active = well fitted curve in the direction sought with a large enough effect; inconclusive = small, poorly fitted or top-dose-only effect, or effect the other way; inactive = no such curve, though single readings can be large or run the other way. The list comes from a sample in which actives are over-represented; it also holds close analogues and randomly drawn compounds.
Pick one: 1 for active, -1 for inactive

[
  {
    "MOLECULE": "CCN1C[C@]2(C)CC[C@H](O)[C@@]34[C@@H]5CC6[C@@H](OC)C[C@@](O)([C@@H]5[C@@H]6O)[C@H](C[C@@H]23)[C@H]14",
    "TESTED_ON": "Cytochrome P450 2D6 (Homo sapiens)",
    "CAT": -1
  },
  {
    "MOLECULE": "CCCn1c(C)c(C(=O)c2ccc3ccccc3c2)c2ccccc21",
    "TESTED_ON": "Cytochrome P450 2D6 (Homo sapiens)",
    "CAT": -1
  },
  {
    "MOLECULE": "O=C(Nc1cccc(F)c1)N1CC2(CCN(C(=O)Oc3ccccc3)CC2)C1",
    "TESTED_ON": "Cytochrome P450 2D6 (Homo sapiens)",
    "CAT": -1
  }
]

Now consider a different molecule.
stdin: For this molecule, state the assay outcome: COc1ccc2c(c1)CN([C@H](C)[C@@H]1CC[C@@H]3[C@H]4CC[C@H]5C[C@@H](O)CC[C@@]5(C)[C@H]4CC[C@]31C)CO2
stdout: 1

Sourced from PubChem BioAssay AID1851
